Reference for the values: patent US20250268903A1

Experimental System: human RXFP1 (Homo sapiens, UniProt Q9HBX9)
Sequence (Q9HBX9 1-757): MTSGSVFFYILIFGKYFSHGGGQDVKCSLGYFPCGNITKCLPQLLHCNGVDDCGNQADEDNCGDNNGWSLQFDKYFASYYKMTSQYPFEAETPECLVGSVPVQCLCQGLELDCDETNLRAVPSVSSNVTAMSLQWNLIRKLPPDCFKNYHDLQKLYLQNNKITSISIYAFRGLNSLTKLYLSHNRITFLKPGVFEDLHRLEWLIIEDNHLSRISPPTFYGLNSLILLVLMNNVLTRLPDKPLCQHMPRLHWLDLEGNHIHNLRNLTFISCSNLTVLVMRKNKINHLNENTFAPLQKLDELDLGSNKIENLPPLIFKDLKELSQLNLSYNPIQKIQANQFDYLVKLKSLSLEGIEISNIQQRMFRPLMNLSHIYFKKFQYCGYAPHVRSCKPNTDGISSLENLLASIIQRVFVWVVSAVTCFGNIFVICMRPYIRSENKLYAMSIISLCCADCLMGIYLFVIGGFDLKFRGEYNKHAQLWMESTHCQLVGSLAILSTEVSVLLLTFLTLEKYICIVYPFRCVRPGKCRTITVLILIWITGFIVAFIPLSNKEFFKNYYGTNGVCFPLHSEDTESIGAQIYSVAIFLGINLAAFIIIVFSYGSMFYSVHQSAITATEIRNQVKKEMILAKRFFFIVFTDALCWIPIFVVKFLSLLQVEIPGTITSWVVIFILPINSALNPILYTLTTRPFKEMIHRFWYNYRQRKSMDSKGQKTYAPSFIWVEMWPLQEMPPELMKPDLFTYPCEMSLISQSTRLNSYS
Protocol Details: hRXFP1 HEK293 cAMP assay (HTRF)
Test Parameters: HEK293 cells stably expressing human RXFP1, 30 min at room temperature
pEC50: −log10 of the molar value.
Use 6 as the dividing line for pEC50, with the line itself on the Satisfied side and lower values as Not satisfied.

Compound: COc1ccc(C(C)CCO)cc1C(=O)N[C@@H]1C2CCC(/C2=C/C(F)(F)F)[C@@H]1C(=O)Nc1ccc(F)c(C(F)(F)F)c1 (single isomer, unassigned) [Example 61]
Experimental System: human RXFP1 (Homo sapiens, UniProt Q9HBX9)
Assigned Class: Satisfied
//
Compound: COc1ccc(C2CC3(CC(NC(=O)OC(C)(C)C)C3)C2)cc1C(=O)NC1C2CCC(/C2=C/C(F)(F)F)[C@@H]1C(=O)Nc1ccc(F)c(C(F)(F)F)c1 (some centres unmarked) [Example 153]
Experimental System: human RXFP1 (Homo sapiens, UniProt Q9HBX9)
Assigned Class: Not satisfied
//
Compound: COc1ccc(S(=O)(=O)N2CCN(C(=O)OC(C)(C)C)[C@H](CO)C2)cc1C(=O)N[C@H]1[C@@H](C(=O)Nc2ccc(F)c(C(F)(F)F)c2)[C@H]2CC[C@@H]1/C2=C\C(F)(F)F [Example 225]
Experimental System: human RXFP1 (Homo sapiens, UniProt Q9HBX9)
Assigned Class: Not satisfied

###

Experimental System: human RXFP1 (Homo sapiens, UniProt Q9HBX9)
Protocol Details: hRXFP1 HEK293 cAMP assay (HTRF)
Test Parameters: HEK293 cells stably expressing human RXFP1, 30 min at room temperature
pEC50: −log10 of the molar value.

Compound: COc1ccc(C(=O)NCC(C)(C)C)cc1C(=O)N[C@H]1[C@@H](C(=O)Nc2ccc(F)c(C(F)(F)F)c2)[C@H]2CC[C@@H]1/C2=C\C1CC1
pEC50: 7.85

Compound: COc1ccc(COC[C@@H]2C[C@@H]2CO)cc1C(=O)N[C@H]1[C@@H](C(=O)Nc2ccc(F)c(C(F)(F)F)c2)[C@H]2CC[C@@H]1/C2=C\C1CC1
pEC50: 7.17

Compound: COc1ccc(CCC(=O)NCCO)cc1C(=O)N[C@@H]1C2CCC(/C2=C/C(F)(F)F)[C@@H]1C(=O)Nc1ccc(F)c(C(F)(F)F)c1 (stereo partly drawn)
pEC50: 6.40

Compound: COc1ccc(S(=O)(=O)N2CCOC[C@@H]2CO)cc1C(=O)N[C@H]1[C@@H](C(=O)Nc2ccc(F)c(C(F)(F)F)c2)[C@H]2CC[C@@H]1/C2=C\C(F)(F)F
pEC50: 6.48

Compound: COc1ccc(COCC2CC3(C2)OCCO3)cc1C(=O)N[C@H]1[C@@H](C(=O)Nc2ccc(F)c(C(F)(F)F)c2)[C@H]2CC[C@@H]1/C2=C\C1CC1
pEC50: 6.92

Compound: COc1ccc(CCC(=O)N2CC[C@H](O)C2)cc1C(=O)N[C@@H]1C2CCC(/C2=C/C(F)(F)F)[C@@H]1C(=O)Nc1ccc(F)c(C(F)(F)F)c1 (stereo partly drawn)
pEC50: 6.37

Compound: COc1ccc(C2CCCC(NC(=O)C3CCOCC3)C2)cc1C(=O)N[C@@H]1C2CCC(/C2=C/C(F)(F)F)[C@@H]1C(=O)Nc1ccc(F)c(C(F)(F)F)c1 (single isomer, unassigned) [Example 49]
pEC50: 6.08

Compound: COc1ccc(C(=O)N2CCCC(CO)C2)cc1C(=O)N[C@H]1[C@@H](C(=O)Nc2ccc(F)c(C(F)(F)F)c2)[C@H]2CC[C@@H]1/C2=C\C1CC1 (stereo partly drawn) [Example 235]
pEC50: 6.89

Compound: COc1ccc(C2CC2C(=O)N2CCC(O)CC2)cc1C(=O)N[C@H]1[C@@H](C(=O)Nc2ccc(F)c(C(F)(F)F)c2)[C@H]2CC[C@@H]1/C2=C\C1CC1 (single isomer, unassigned) [Example 321]
pEC50: 7.55

Compound: COc1ccc(C#C[C@@H](C)O)cc1C(=O)N[C@@H]1C2CCC(/C2=C/C(F)(F)F)[C@@H]1C(=O)Nc1ccc(F)c(C(F)(F)F)c1 (stereo partly drawn)
pEC50: 6.87

Compound: COc1ccc(C2CCCC(NCC(=O)O)C2)cc1C(=O)N[C@@H]1C2CCC(/C2=C/C(F)(F)F)[C@@H]1C(=O)Nc1ccc(F)c(C(F)(F)F)c1 (stereo partly drawn)
pEC50: 5.30

Compound: COc1ccc(CC2CCOCC2)cc1C(=O)NC1C2CCC(/C2=C/C2CCC2)[C@@H]1C(=O)Nc1ccc(F)c(C(F)(F)F)c1 (stereo partly drawn)
pEC50: 7.12

Compound: CCCc1ccc(OC)c(C(=O)N[C@@H]2C3CCC(/C3=C/C(F)(F)F)[C@@H]2C(=O)Nc2ccc(F)c(C(F)(F)F)c2)c1 (stereo partly drawn)
pEC50: 5.52

Compound: COc1ccc(C#CC(C)(C)O)cc1C(=O)N[C@@H]1C2CCC(/C2=C/C(F)(F)F)[C@@H]1C(=O)Nc1ccc(F)c(C(F)(F)F)c1 (stereo partly drawn)
pEC50: 6.51

Compound: COc1ccc(/C=C/C(=O)N2CCO[C@@H](CO)C2)cc1C(=O)N[C@H]1[C@@H](C(=O)Nc2ccc(F)c(C(F)(F)F)c2)[C@H]2CC[C@@H]1/C2=C\C1CC1
pEC50: 7.73

Compound: CCOC(=O)C1CCCC(c2ccc(OC)c(C(=O)N[C@@H]3C4CCC(/C4=C/C(F)(F)F)[C@@H]3C(=O)Nc3ccc(F)c(C(F)(F)F)c3)c2)C1 (stereo partly drawn)
pEC50: 6.78

Compound: COc1ccc(C2CC2CO)cc1C(=O)N[C@@H]1C2CCC(/C2=C/C(F)(F)F)[C@@H]1C(=O)Nc1ccc(F)c(C(F)(F)F)c1 (single isomer, unassigned) [Example 64]
pEC50: 6.60

Compound: COc1ccc(/C=C/C(=O)N2CC(O)C2)cc1C(=O)N[C@H]1[C@@H](C(=O)Nc2ccc(F)c(C(F)(F)F)c2)[C@H]2CC[C@@H]1/C2=C\C1CC1
pEC50: 7.48

###

Experimental System: human RXFP1 (Homo sapiens)
Protocol Details: hRXFP1 HEK293 cAMP assay (HTRF)
Test Parameters: HEK293 cells stably expressing human RXFP1, 30 min at room temperature

Molecule: COc1ccc(C2CC3CC(CO)CC32)cc1C(=O)N[C@H]1[C@@H](C(=O)Nc2ccc(F)c(C(F)(F)F)c2)[C@H]2CC[C@@H]1/C2=C\C1CC1 (single isomer, unassigned) [Example 351]
Experimental System: human RXFP1 (Homo sapiens)
EC50: 0.0277 µM

Molecule: COc1ccc(CCCNC(=O)C(C)(C)O)cc1C(=O)N[C@@H]1C2CCC(/C2=C/C(F)(F)F)[C@@H]1C(=O)Nc1ccc(F)c(C(F)(F)F)c1 (some centres unmarked)
Experimental System: human RXFP1 (Homo sapiens)
EC50: 0.341 µM

Molecule: COc1cc(C#CCO)ccc1C(=O)N[C@@H]1C2CCC(/C2=C/C(F)(F)F)[C@@H]1C(=O)Nc1ccc(F)c(C(F)(F)F)c1 (some centres unmarked)
Experimental System: human RXFP1 (Homo sapiens)
EC50: 3.55 µM

Molecule: CCN1CCN(S(=O)(=O)c2ccc(OC)c(C(=O)N[C@H]3[C@@H](C(=O)Nc4ccc(F)c(C(F)(F)F)c4)[C@H]4CC[C@@H]3/C4=C\C(F)(F)F)c2)CC1
Experimental System: human RXFP1 (Homo sapiens)
EC50: 0.603 µM

Molecule: COc1c(F)cc(C(=O)NCC2(S(C)(=O)=O)CC2)cc1C(=O)N[C@H]1[C@@H](C(=O)Nc2ccc(F)c(C(F)(F)F)c2)[C@H]2CC[C@@H]1/C2=C\C(F)(F)F
Experimental System: human RXFP1 (Homo sapiens)
EC50: 0.0091 µM

Molecule: COc1ccc(S(=O)(=O)Nc2nnn[nH]2)cc1C(=O)NC1C2CCC(/C2=C/C(F)(F)F)[C@@H]1C(=O)Nc1ccc(F)c(C(F)(F)F)c1 (some centres unmarked)
Experimental System: human RXFP1 (Homo sapiens)
EC50: 3.05 µM

Molecule: COc1ccc(CCCC(F)(F)F)cc1C(=O)NC1C2CCC(/C2=C/C(F)(F)F)[C@@H]1C(=O)Nc1ccc(F)c(C(F)(F)F)c1 (some centres unmarked)
Experimental System: human RXFP1 (Homo sapiens)
EC50: 0.603 µM

Molecule: COCCCc1ccc(OC)c(C(=O)NC2C3CCC(/C3=C/C(F)(F)F)[C@@H]2C(=O)Nc2ccc(F)c(C(F)(F)F)c2)c1 (some centres unmarked)
Experimental System: human RXFP1 (Homo sapiens)
EC50: 0.494 µM
